experiment: Plasma protein binding in rat assessed as bound fraction at 0.5 to 2 uM measured after 30 mins by HPLC-MS/MS analysis; type: ADME, cell-free; settings: dose 0.5-2 µM, read-out: PPB (converted)
PROPERTY_MEASURED: fraction unbound at 0.5 h, up to 2 µM
Respond using a number only.

Query string: Entry COc1ccc([C@H](Cc2c(Cl)c[n+]([O-])cc2Cl)OC(=O)c2ccc(CNC(C(=O)O[C@H]3CN4CCC3CC4)c3ccccc3)s2)cc1OC (stereo in doubt; 92a) has what fraction unbound at 0.5 h, up to 2 µM?
Result string: 0.086

###

experiment: Kinetic solubility of compound in PBS at pH 7.4 […] incubated for 2 hrs by LC-UV and LC-MS analysis; assay type: physicochemical; conditions: read-out: Kinetic_solubility
PROPERTY_MEASURED: solubility kinetic at 2 h

Below: 2 compounds and their reported solubility kinetic at 2 h.
INSERT INTO assay_data (entry_smiles, experimental_value) VALUES
  ('CC(C)Oc1cc([C@H](Cc2c(Cl)c[n+]([O-])cc2Cl)OC(=O)c2ccc(CN(C(=O)O[C@H]3CN4CCC3CC4)c3ccccc3F)s2)ccc1OC(F)F', '< 5 µM'),
  ('COc1cc([C@H](Cc2c(Cl)c[n+]([O-])cc2Cl)OC(=O)c2ccc(CN(C(=O)O[C@H]3CN4CCC3CC4)c3ccccc3F)s2)ccc1OC(F)F', '< 5 µM');

Attention now shifts to the item below.
Query string: Returns the measured solubility kinetic at 2 h for the input compound. Input: O=C(O[C@@H](Cc1c(Cl)c[n+]([O-])cc1Cl)c1ccc(OC(F)F)c(OCC2CC2)c1)c1ccc(CN(C(=O)O[C@H]2CN3CCC2CC3)c2ccccc2F)s1
Result string: < 5 µM
